- Procedure Text: Bioavailability in plasma of Microsporum canis infected guinea pig after […] administration of 2 mg/kg dose
- Type: ADME, organism-based, Cavia porcellus
- Recorded Conditions: read-out: Activity
Measurement Type: bioavailability

-- ask Any idea what its bioavailability is? The compound is `CCc1ccc([C@H]2NCc3c(Cl)cccc3-n3cccc32)cc1`
-- reply < 5%

* * *

- Test system: Candida parapsilosis
- Procedure Text: Minimum inhibitory concentration against Candida B66126 parapsilosis by microdilution method
- Format: functional
- Recorded Conditions: Lodderomyces parapsilosis
MIC for assorted compounds
Kindly answer with a numeric value in µM, unit omitted.

-- ask Any idea what its MIC is? The compound is CCc1ccc(C2NCc3c(OC)cccc3-n3cccc32)cc1 (configuration not stated)
-- reply 100

-- ask Any idea what its MIC is? The compound is CCc1ccc(C2NCc3ccc(Cl)cc3-n3cccc32)cc1 (configuration not stated)
-- reply 100

-- ask Any idea what its MIC is? The compound is CCc1ccc(C2c3cccn3-c3cccc(Cl)c3CN2C)cc1 (configuration not stated)
-- reply 100

-- ask Any idea what its MIC is? The compound is `CCc1ccc([C@@H]2NCc3c(Cl)cccc3-n3cccc32)cc1`
-- reply 100

-- ask Any idea what its MIC is? The compound is CCc1ccc(C2NCc3cccc(Cl)c3-n3cccc32)cc1 (configuration not stated)
-- reply 100

* * *

- Procedure Text: Minimum inhibitory concentration against Trichophyton rubrum B68183 by microdilution method
- Type: functional
MIC for assorted compounds
Kindly answer with a numeric value in µM, unit omitted.

Previously resolved entries follow.
Clc1ccc(C2NCc3c(Cl)cccc3-n3cccc32)cc1 (stereo unspecified) = 0.32
Clc1cccc2c1CNC(c1ccc(Br)cc1)c1cccn1-2 (stereo unspecified) = 0.21
CCc1ccc(C2NCc3c(OC)cccc3-n3cccc32)cc1 (stereo unspecified) = 3.2
CCc1ccc(C2=NCc3ccc(Cl)cc3-n3cccc32)cc1 = 0.065
CCc1ccc(C2NCc3c(F)cccc3-n3cccc32)cc1 (stereo unspecified) = 0.32

Then there is this compound:
-- ask Any idea what its MIC is? The compound is CCCc1ccc(C2NCc3c(Cl)cccc3-n3cccc32)cc1 (stereo unspecified)
-- reply 0.32

* * *

MIC for assorted compounds
- Tested on: Candida parapsilosis
- Procedure Text: Minimum inhibitory concentration against Candida B66126 parapsilosis by microdilution method
- Type: functional
- Recorded Conditions: Lodderomyces parapsilosis
Kindly answer with a numeric value in µM, unit omitted.

Previously resolved entries follow.
CCc1ccc(C2NCc3c(C)cccc3-n3cccc32)cc1 (configuration not stated) = 55
CCc1ccccc1C1NCc2c(Cl)cccc2-n2cccc21 (configuration not stated) = 100
CCc1ccc(C2=NCc3c(Cl)cccc3-n3cccc32)cc1 = 0.32
CCc1ccc(C2=NCc3ccccc3-n3cccc32)cc1 = 0.32
CCc1cccc(C2NCc3c(Cl)cccc3-n3cccc32)c1 (configuration not stated) = 10
Cc1ccc(C2NCc3c(Cl)cccc3-n3cccc32)cc1 (configuration not stated) = 100
CCc1ccc([C@H]2NCc3c(Cl)cccc3-n3cccc32)cc1 = 0.32
CCc1ccc(C2=NCc3ccc(Cl)cc3-n3cccc32)cc1 = 1

-- ask Any idea what its MIC is? The compound is Clc1cccc2c1CNC(c1ccccc1)c1cccn1-2 (configuration not stated)
-- reply 100

-- ask Any idea what its MIC is? The compound is CCCc1ccc(C2NCc3c(Cl)cccc3-n3cccc32)cc1 (configuration not stated)
-- reply 6.6

-- ask Any idea what its MIC is? The compound is CCc1ccc(C2NCc3cc(Cl)ccc3-n3cccc32)cc1 (configuration not stated)
-- reply 100

-- ask Any idea what its MIC is? The compound is `CN(C/C=C/C#CC(C)(C)C)Cc1cccc2ccccc12`
-- reply 0.32

* * *

- Procedure Text: Minimum inhibitory concentration against Trichophyton rubrum B68183 by microdilution method
- Format: functional
param class (str): category from MIC; see ranges lower level (below 0.1 µM), middle level (0.1 µM to below 1 µM), upper level (1 µM or more)

Some entries whose results are on file:
CCc1ccc(C2NCc3c(Cl)cccc3-n3cccc32)cc1 (stereo not drawn) = lower level
CCc1ccc(C2NCc3c(SC)cccc3-n3cccc32)cc1 (stereo not drawn) = middle level
CCc1ccc([C@H]2NCc3c(Cl)cccc3-n3cccc32)cc1 = lower level

-- ask Field: class (MIC) — entry: CCc1ccc(C2NCc3c(C)cccc3-n3cccc32)cc1 (stereo not drawn)
-- reply middle level

-- ask Field: class (MIC) — entry: CCc1ccc(C2c3cccn3-c3cccc(Cl)c3CN2C)cc1 (stereo not drawn)
-- reply upper level

-- ask Field: class (MIC) — entry: `CCc1ccc(C2=NCc3c(Cl)cccc3-n3cccc32)cc1`
-- reply lower level

-- ask Field: class (MIC) — entry: CCc1ccc(C2NCc3cc(Cl)ccc3-n3cccc32)cc1 (stereo not drawn)
-- reply upper level

-- ask Field: class (MIC) — entry: `CCc1ccc(C2=NCc3ccccc3-n3cccc32)cc1`
-- reply lower level

-- ask Field: class (MIC) — entry: Clc1cccc2c1CNC(c1ccccc1)c1cccn1-2 (stereo not drawn)
-- reply middle level

-- ask Field: class (MIC) — entry: CCc1ccccc1C1NCc2c(Cl)cccc2-n2cccc21 (stereo not drawn)
-- reply upper level

-- ask Field: class (MIC) — entry: `CN(C/C=C/C#CC(C)(C)C)Cc1cccc2ccccc12`
-- reply lower level

-- ask Field: class (MIC) — entry: `CCc1ccc([C@@H]2NCc3c(Cl)cccc3-n3cccc32)cc1`
-- reply middle level

* * *

- Procedure Text: Minimum inhibitory concentration against Microsporum canis B68128 by microdilution method
- Type: functional
Measurement Type: MIC (µM)
Kindly answer with a numeric value in µM, unit omitted.

CC(C)(C)c1ccc(C2NCc3c(Cl)cccc3-n3cccc32)cc1 (centres undefined) = 0.66

-- ask Any idea what its MIC is? The compound is CCc1ccc(C2NCc3c(OC)cccc3-n3cccc32)cc1 (centres undefined)
-- reply 10

-- ask Any idea what its MIC is? The compound is CN(C/C=C/C#CC(C)(C)C)Cc1cccc2ccccc12 [TERBINAFINE]
-- reply 0.03

-- ask Any idea what its MIC is? The compound is `CCc1ccc(C2=NCc3ccc(Cl)cc3-n3cccc32)cc1`
-- reply 0.32

-- ask Any idea what its MIC is? The compound is CCc1ccccc1C1NCc2c(Cl)cccc2-n2cccc21 (centres undefined)
-- reply 100

-- ask Any idea what its MIC is? The compound is CCc1ccc(C2NCc3c(F)cccc3-n3cccc32)cc1 (centres undefined)
-- reply 3.2

* * *

- Tested on: Candida parapsilosis
- Procedure Text: Minimum inhibitory concentration against Candida B66126 parapsilosis by microdilution method
- Type: functional
- Recorded Conditions: Lodderomyces parapsilosis
MIC for assorted compounds
Kindly answer with a numeric value in µM, unit omitted.

Previously resolved entries follow.
CCc1ccc(C2NCc3c(SC)cccc3-n3cccc32)cc1 (configuration not stated) = 100
CCc1ccc(C2NCc3c(F)cccc3-n3cccc32)cc1 (configuration not stated) = 10
CC(C)(C)c1ccc(C2NCc3c(Cl)cccc3-n3cccc32)cc1 (configuration not stated) = 55
Clc1ccc(C2NCc3c(Cl)cccc3-n3cccc32)cc1 (configuration not stated) = 100
CCc1ccc(C2NCc3ccccc3-n3cccc32)cc1 (configuration not stated) = 100

-- ask Any idea what its MIC is? The compound is CCc1ccc(C2NCc3c(Cl)cccc3-n3cccc32)cc1 (configuration not stated)
-- reply 1

-- ask Any idea what its MIC is? The compound is Clc1cccc2c1CNC(c1ccc(Br)cc1)c1cccn1-2 (configuration not stated)
-- reply 100

* * *

- Procedure Text: Minimum inhibitory concentration against Trichophyton rubrum B68183 by microdilution method
- Assay type: functional
MIC for assorted compounds
Kindly answer with a numeric value in µM, unit omitted.

CC(C)(C)c1ccc(C2NCc3c(Cl)cccc3-n3cccc32)cc1 (stereo unspecified) = 1
CCc1ccc(C2NCc3cccc(Cl)c3-n3cccc32)cc1 (stereo unspecified) = 1
CCc1cccc(C2NCc3c(Cl)cccc3-n3cccc32)c1 (stereo unspecified) = 0.1
CCc1ccc(C2NCc3ccccc3-n3cccc32)cc1 (stereo unspecified) = 1
Cc1ccc(C2NCc3c(Cl)cccc3-n3cccc32)cc1 (stereo unspecified) = 0.1

Then there is this compound:
-- ask Any idea what its MIC is? The compound is CCc1ccc(C2NCc3ccc(Cl)cc3-n3cccc32)cc1 (stereo unspecified)
-- reply 0.1

* * *

- Procedure Text: Minimum inhibitory concentration against Microsporum canis B68128 by microdilution method
- Format: functional
MIC for assorted molecules
Kindly answer with a numeric value in µM, unit omitted.

Previously resolved entries follow.
CCc1cccc(C2NCc3c(Cl)cccc3-n3cccc32)c1 (stereo not drawn) = 1
CCc1ccc(C2NCc3c(Cl)cccc3-n3cccc32)cc1 (stereo not drawn) = 0.32

-- ask Any idea what its MIC is? The molecule is CCc1ccc(C2c3cccn3-c3cccc(Cl)c3CN2C)cc1 (stereo not drawn)
-- reply 100

-- ask Any idea what its MIC is? The molecule is Clc1cccc2c1CNC(c1ccccc1)c1cccn1-2 (stereo not drawn)
-- reply 100

-- ask Any idea what its MIC is? The molecule is Clc1ccc(C2NCc3c(Cl)cccc3-n3cccc32)cc1 (stereo not drawn)
-- reply 0.66

-- ask Any idea what its MIC is? The molecule is `CCc1ccc([C@H]2NCc3c(Cl)cccc3-n3cccc32)cc1`
-- reply 0.32

-- ask Any idea what its MIC is? The molecule is CCCc1ccc(C2NCc3c(Cl)cccc3-n3cccc32)cc1 (stereo not drawn)
-- reply 0.66

-- ask Any idea what its MIC is? The molecule is Cc1ccc(C2NCc3c(Cl)cccc3-n3cccc32)cc1 (stereo not drawn)
-- reply 2.1

-- ask Any idea what its MIC is? The molecule is Clc1cccc2c1CNC(c1ccc(Br)cc1)c1cccn1-2 (stereo not drawn)
-- reply 0.32

-- ask Any idea what its MIC is? The molecule is `CCc1ccc(C2=NCc3c(Cl)cccc3-n3cccc32)cc1`
-- reply 0.03

-- ask Any idea what its MIC is? The molecule is CCc1ccc(C2NCc3c(SC)cccc3-n3cccc32)cc1 (stereo not drawn)
-- reply 3.2

-- ask Any idea what its MIC is? The molecule is `CCc1ccc([C@@H]2NCc3c(Cl)cccc3-n3cccc32)cc1`
-- reply 0.32

-- ask Any idea what its MIC is? The molecule is CCc1ccc(C2NCc3cc(Cl)ccc3-n3cccc32)cc1 (stereo not drawn)
-- reply 100

-- ask Any idea what its MIC is? The molecule is CCc1ccc(C2NCc3ccccc3-n3cccc32)cc1 (stereo not drawn)
-- reply 100

-- ask Any idea what its MIC is? The molecule is CCc1ccc(C2NCc3ccc(Cl)cc3-n3cccc32)cc1 (stereo not drawn)
-- reply 1

-- ask Any idea what its MIC is? The molecule is CCc1ccc(C2NCc3cccc(Cl)c3-n3cccc32)cc1 (stereo not drawn)
-- reply 3.2

-- ask Any idea what its MIC is? The molecule is CCc1ccc(C2NCc3c(C)cccc3-n3cccc32)cc1 (stereo not drawn)
-- reply 2.1

-- ask Any idea what its MIC is? The molecule is `CCc1ccc(C2=NCc3ccccc3-n3cccc32)cc1`
-- reply 0.32
